- Assay Name: in vitro
- Run Parameters: human, Calu-3 Uninf. cells CC50 (µM)

{"Molecule": "COc1ccc2c(O[C@@H]3C[C@H]4C(=O)N[C@]5(C(=O)NS(=O)(=O)C6CC6)C[C@H]5/C=C\\CCCCN(C)C(=O)[C@@H]4C3)cc(-c3nc(C(C)C)cs3)nc2c1C [Simeprevir]", "CC50 at 48 h": "> 22.4 µM"}
{"Molecule": "CC(=O)N1C[C@H](O)C[C@H]1C(=O)N[C@@H](CCCNC(=N)N)C(=O)c1nc2ccccc2s1 [RWJ-56423]", "CC50 at 48 h": "> 30 µM"}
{"Molecule": "COC(=O)C1=C(C)NC(C)=C(C(=O)OCCN2CCN(C(c3ccccc3)c3ccccc3)CC2)C1c1cccc([N+](=O)[O-])c1 (stereo not shown) [Manidipine]", "CC50 at 48 h": "> 30 µM"}
{"Molecule": "N=C(N)Nc1ccc(C(=O)Oc2ccc(S(N)(=O)=O)cc2)cc1 [Ono-3307]", "CC50 at 48 h": "> 30 µM"}
{"Molecule": "Nc1ncnc2c1nc(Cl)n2[C@@H]1O[C@H](CO)[C@@H](O)[C@H]1O [8-Chloroadenosine]", "CC50 at 48 h": "> 27.8 µM"}
{"Molecule": "O=c1nc(NO)ccn1[C@@H]1O[C@H](CO)[C@@H](O)[C@H]1O [N-hydroxycytidine]", "CC50 at 48 h": "> 29.9 µM"}
{"Molecule": "N=C(N)c1ccc2cc(OC(=O)c3ccc(CNC(=O)CCCC(=O)O)o3)ccc2c1 [TO-195]", "CC50 at 48 h": "> 30 µM"}

###

List of HEK293T 72-hour cytotoxicty Sinf Average values.
- Tested on: HEK293T
- Run Parameters: human, 72 h

{"Molecule": "COc1ccc2cc1Oc1ccc(cc1)C[C@H]1c3c(cc4c(c3Oc3cc5c(cc3OC)CCN(C)[C@@H]5C2)OCO4)CCN1C", "HEK293T 72-hour cytotoxicty Sinf Average / %": -103}
{"Molecule": "COC(=O)C1=C(C)NC(C)=C(C(=O)OCCN2CCN(C(c3ccccc3)c3ccccc3)CC2)C1c1cccc([N+](=O)[O-])c1 (stereo not shown)", "HEK293T 72-hour cytotoxicty Sinf Average / %": -100}
{"Molecule": "Nc1ncnc2c1nc(Cl)n2[C@@H]1O[C@H](CO)[C@@H](O)[C@H]1O", "HEK293T 72-hour cytotoxicty Sinf Average / %": -98}
{"Molecule": "CCCCN1CC[C@H](c2ccc(N(C)C)cc2)[C@@H](COc2ccc(C(F)(F)F)cc2)C1", "HEK293T 72-hour cytotoxicty Sinf Average / %": -100}
{"Molecule": "Nc1nc(Nc2ccc3c(c2)CC[C@@H](N2CCCC2)CC3)nn1-c1cc2c(nn1)-c1ccccc1CCC2", "HEK293T 72-hour cytotoxicty Sinf Average / %": -102}
{"Molecule": "CC(C)Oc1ccc(-c2nc(-c3cccc4c3CC[C@@H]4NCCO)no2)cc1C#N", "HEK293T 72-hour cytotoxicty Sinf Average / %": -100}
{"Molecule": "Cc1cccc(/C=N/Nc2cc(N3CCOCC3)n3nc(-c4ccncc4)cc3n2)c1", "HEK293T 72-hour cytotoxicty Sinf Average / %": -96}

###

- Tested on: SARS-CoV-2
- Assay Name: microbe, parasite or virus in culture
- Assay type: cell-based
- Run Parameters: selectivity index, uninfected Calu-3 CC50 / Calu-3 SARS-CoV-2 EC50
Structures can show the parent of a compound that is named as a salt.
Experimental Readout: Calu-3 SI

{"Molecule": "OCCN1CCN(CC/C=C2/c3ccccc3Sc3ccc(Cl)cc32)CC1", "Experimental Readout": "Calu-3 SI", "Data Value": 1.06}
{"Molecule": "Oc1ccc(Nc2ccnc3cc(Cl)ccc23)cc1CN1CCCC1", "Experimental Readout": "Calu-3 SI", "Data Value": 1.87}
{"Molecule": "CC(CN(C)C)CN1c2ccccc2CCc2ccccc21 (stereo not shown) [Trimipramine maleate]", "Experimental Readout": "Calu-3 SI", "Data Value": 2.90}
{"Molecule": "N#Cc1ccc2c(c1)[C@H]1CN(CCCCNC(=O)c3ccc(-c4ccccc4)cc3)C[C@@H]1CO2", "Experimental Readout": "Calu-3 SI", "Data Value": 2.28}
{"Molecule": "COC(CNCC(C)C)COc1c(C)csc1C(=O)CCc1ccccc1 (stereo not shown)", "Experimental Readout": "Calu-3 SI", "Data Value": 2.91}
{"Molecule": "CCc1ccc2c(c1)N(CC(C)CN(C)C)c1ccccc1S2 (stereo not shown) [Ethylisobutrazine hydrochloride]", "Experimental Readout": "Calu-3 SI", "Data Value": 1.57}
{"Molecule": "COC(=O)[C@H]1[C@H]2C[C@@H]3c4[nH]c5cc(OC)ccc5c4CCN3C[C@H]2C[C@@H](OC(=O)c2cc(OC)c(OC)c(OC)c2)[C@@H]1OC", "Experimental Readout": "Calu-3 SI", "Data Value": 2.85}

Ref: paper PMC8175350
